Just for reference, patent US20260355212A1 is where these values come from.

# TARGET: HCoV-229E Mpro (Human coronavirus 229E, UniProt P0C6X1)
# Sequence (P0C6X1 2966-3267 limits assumed): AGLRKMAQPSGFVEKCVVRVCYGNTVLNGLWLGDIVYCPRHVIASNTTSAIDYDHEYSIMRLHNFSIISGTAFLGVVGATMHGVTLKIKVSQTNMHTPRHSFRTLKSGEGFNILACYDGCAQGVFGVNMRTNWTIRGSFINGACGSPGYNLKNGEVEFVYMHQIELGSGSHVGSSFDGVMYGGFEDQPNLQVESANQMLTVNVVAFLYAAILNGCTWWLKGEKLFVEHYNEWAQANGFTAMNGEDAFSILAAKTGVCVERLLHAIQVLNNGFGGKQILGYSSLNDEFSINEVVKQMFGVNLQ
# EXPERIMENT_DESCRIPTION: HCoV-229E Mpro enzymatic inhibition assay (fluorescence)
# Assay type: biochemical
// pIC50 lookup, one value per entry
As a rule, pIC50 stands for the negative log10 of the concentration, concentration in M.

Some entries whose results are on file:
{"CHEMICAL_SMILES": "CC1(C)[C@@H]2[C@@H](C(=O)N[C@H](C#N)C[C@@H]3CCNC3=O)N(C(=O)c3cc4cccc(Cl)c4[nH]3)C[C@@H]21", "TARGET": "HCoV-229E Mpro (Human coronavirus 229E, UniProt P0C6X1)", "OBSERVED_VALUE": 5.92}
{"CHEMICAL_SMILES": "CC(C)c1ccc(F)c2[nH]c(C(=O)N3C[C@H]4[C@@H]([C@H]3C(=O)N[C@H](C#N)C[C@@H]3CCNC3=O)C4(C)C)cc12", "TARGET": "HCoV-229E Mpro (Human coronavirus 229E, UniProt P0C6X1)", "OBSERVED_VALUE": 6.16}
{"CHEMICAL_SMILES": "Cc1ccc2[nH]c(C(=O)N3C[C@H]4[C@@H]([C@H]3C(=O)N[C@H](C=O)C[C@@H]3CCNC3=O)C4(C)C)cc2c1", "TARGET": "HCoV-229E Mpro (Human coronavirus 229E, UniProt P0C6X1)", "OBSERVED_VALUE": 7.48}
{"CHEMICAL_SMILES": "O=C[C@H](C[C@@H]1CCNC1=O)NC(=O)[C@@H]1[C@H]2CCC[C@H]2CN1C(=O)COc1ccc(Cl)cc1Cl", "TARGET": "HCoV-229E Mpro (Human coronavirus 229E, UniProt P0C6X1)", "OBSERVED_VALUE": 7.27}
{"CHEMICAL_SMILES": "O=C[C@H](C[C@@H]1CCNC1=O)NC(=O)[C@@H]1C[C@@H](C2CCCCC2)CN1C(=O)c1cc2ccccc2[nH]1", "TARGET": "HCoV-229E Mpro (Human coronavirus 229E, UniProt P0C6X1)", "OBSERVED_VALUE": 7.36}

--- query ---
Memo: "CC1(C)[C@@H]2[C@@H](C(=O)N[C@H](C=O)C[C@@H]3CCNC3=O)N(C(=O)C3(c4ccccc4)CC3)C[C@@H]21" , reported pIC50: 7.49

* * *

# TARGET: UniProt K9N7C7
# Sequence (K9N7C7 3248-3553 limits assumed): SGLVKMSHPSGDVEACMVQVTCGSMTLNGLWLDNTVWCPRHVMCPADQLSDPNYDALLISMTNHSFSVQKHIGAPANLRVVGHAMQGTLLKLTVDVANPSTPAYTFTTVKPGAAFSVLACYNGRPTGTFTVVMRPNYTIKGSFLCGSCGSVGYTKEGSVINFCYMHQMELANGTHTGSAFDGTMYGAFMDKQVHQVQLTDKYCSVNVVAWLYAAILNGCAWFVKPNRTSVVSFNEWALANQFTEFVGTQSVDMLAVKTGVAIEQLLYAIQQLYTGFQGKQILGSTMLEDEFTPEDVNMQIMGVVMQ
# EXPERIMENT_DESCRIPTION: biochemical
# Set-up: species or system MERS-CoV
// IC50 lookup, one value per entry
Entry rule: numbers only, all in nM.

{"COMPOUND": "CC1(C)C[C@@H](C(=O)N[C@H](C=O)C[C@@H]2CCNC2=O)N(C(=O)c2cc3cccc(Cl)c3[nH]2)C1", "IC50 [nM]": 313}
{"COMPOUND": "N#C[C@@H]1C[C@@H](C(=O)N[C@H](C=O)C[C@@H]2CCNC2=O)N(C(=O)c2cc3ccccc3[nH]2)C1", "IC50 [nM]": 2760}
{"COMPOUND": "O=C[C@H](C[C@@H]1CCNC1=O)NC(=O)[C@@H]1C[C@@H](C2CCCCC2)CN1C(=O)c1cc2ccccc2[nH]1", "IC50 [nM]": 438}
{"COMPOUND": "CC1(C)[C@@H]2[C@@H](C(=O)N[C@H](C#N)C[C@@H]3CCNC3=O)N(C(=O)C3(c4ccccc4)CCCC3)C[C@@H]21", "IC50 [nM]": 8410}
{"COMPOUND": "CC1(C)[C@@H]2[C@@H](C(=O)N[C@H](C=O)C[C@@H]3CCNC3=O)N(C(=O)c3[nH]c4ccccc4c3-c3ccccc3)C[C@@H]21", "IC50 [nM]": 1550}

Memo: "O=C[C@H](C[C@@H]1CCNC1=O)NC(=O)[C@@H]1C[C@@H](C2CCCCC2)CN1C(=O)c1cc2cccc(F)c2[nH]1" , reported IC50: 1420

Memo: "CC(C)(C)NC(=O)N[C@H](C(=O)N1C[C@H]2[C@@H]([C@H]1C(=O)N[C@@H](C[C@@H]1CCNC1=O)C(=O)C(N)=O)C2(C)C)C(C)(C)C" , reported IC50: 621

* * *

# TARGET: HCoV-229E Mpro (Human coronavirus 229E, UniProt P0C6X1)
# EXPERIMENT_DESCRIPTION: HCoV-229E Mpro enzymatic inhibition assay (fluorescence)
# Format: biochemical
REPORTED_PROPERTY: pIC50
As a rule, pIC50 stands for the negative log10 of the concentration, concentration in M.

Some entries whose results are on file:
{"COMPOUND": "C=C1C[C@@H](C(=O)N[C@H](C=O)C[C@@H]2CCNC2=O)N(C(=O)c2cc3ccccc3[nH]2)C1 [Compound 108]", "pIC50": 7.32}
{"COMPOUND": "O=C[C@H](C[C@@H]1CCNC1=O)NC(=O)[C@@H]1[C@H]2C[C@H](F)[C@H](C2)N1C(=O)c1cc2ccccc2[nH]1 [Compound 106]", "pIC50": 7.04}
{"COMPOUND": "O=C[C@H](C[C@@H]1CCNC1=O)NC(=O)[C@@H]1CC2(CCC2)CN1C(=O)c1cc2ccccc2[nH]1 [Compound 10]", "pIC50": 7.49}

Memo: O=C[C@H](C[C@@H]1CCNC1=O)NC(=O)[C@@H]1C[C@@H](C2CCCCC2)CN1C(=O)c1cc2cccc(Cl)c2[nH]1 [Compound 81] , reported pIC50: 7.11

Memo: Cn1c(C(=O)N2C[C@H]3[C@@H]([C@H]2C(=O)N[C@H](C=O)C[C@@H]2CCNC2=O)C3(C)C)cc2c(F)cccc21 [Compound 100] , reported pIC50: 6.97

Memo: CC1(C)[C@@H]2[C@@H](C(=O)N[C@H](C#N)C[C@@H]3CCNC3=O)N(C(=O)C3(c4ccccc4)CC3)C[C@@H]21 [Compound 135] , reported pIC50: 5.46

Memo: CC(C)c1ccc(Cl)c2[nH]c(C(=O)N3C[C@H]4[C@@H]([C@H]3C(=O)N[C@H](C=O)C[C@@H]3CCNC3=O)C4(C)C)cc12 [Compound 88] , reported pIC50: 7.38

Memo: N#C[C@@H]1C[C@@H](C(=O)N[C@H](C=O)C[C@@H]2CCNC2=O)N(C(=O)c2cc3ccccc3[nH]2)C1 [Compound 112] , reported pIC50: 6.83

Memo: CC1(C)[C@@H]2[C@@H](C(=O)N[C@H](C=O)C[C@@H]3CCNC3=O)N(C(=O)CC3CCCCC3)C[C@@H]21 [Compound 53] , reported pIC50: 7.53

* * *

# TARGET: SARS-CoV-2 Mpro (Severe acute respiratory syndrome coronavirus 2)
# EXPERIMENT_DESCRIPTION: SARS-CoV-2 Mpro enzymatic inhibition assay (fluorescence)
# Type: biochemical
// IC50 lookup, one value per entry
Entry rule: numbers only, all in µM.

Some entries whose results are on file:
{"CHEMICAL_SMILES": "CC1(C)[C@@H]2[C@@H](C(=O)N[C@H](C=O)C[C@@H]3CCNC3=O)N(C(=O)c3cc4cccc(Cl)c4[nH]3)C[C@@H]21", "TARGET": "SARS-CoV-2 Mpro (Severe acute respiratory syndrome coronavirus 2)", "IC50 (µM)": 0.0105}
{"CHEMICAL_SMILES": "CC1(C)[C@@H]2[C@@H](C(=O)N[C@H](C=O)C[C@@H]3CCNC3=O)N(C(=O)c3cc4ccc(Cl)cc4[nH]3)C[C@@H]21", "TARGET": "SARS-CoV-2 Mpro (Severe acute respiratory syndrome coronavirus 2)", "IC50 (µM)": 0.0221}
{"CHEMICAL_SMILES": "CC1(C)[C@@H]2[C@@H](C(=O)N[C@H](C=O)C[C@@H]3CCNC3=O)N(C(=O)c3cc4cccc(C#N)c4[nH]3)C[C@@H]21", "TARGET": "SARS-CoV-2 Mpro (Severe acute respiratory syndrome coronavirus 2)", "IC50 (µM)": 0.0197}
{"CHEMICAL_SMILES": "CC1(C)[C@@H]2[C@@H](C(=O)N[C@H](C=O)C[C@@H]3CCNC3=O)N(C(=O)c3cc4cc(S(C)(=O)=O)ccc4[nH]3)C[C@@H]21", "TARGET": "SARS-CoV-2 Mpro (Severe acute respiratory syndrome coronavirus 2)", "IC50 (µM)": 0.035}

Memo: "O=C[C@H](C[C@@H]1CCNC1=O)NC(=O)[C@@H]1C[C@@H]2C[C@@H]2N1C(=O)c1cc2ccccc2[nH]1" , reported IC50: 0.228

Memo: "N#Cc1cccc2[nH]c(C(=O)N3CC4(CC4)C[C@H]3C(=O)N[C@H](C=O)C[C@@H]3CCNC3=O)cc12" , reported IC50: 0.0327

Memo: "CC(C)c1ccc(F)c2[nH]c(C(=O)N3C[C@H]4[C@@H]([C@H]3C(=O)N[C@H](C=O)C[C@@H]3CCNC3=O)C4(C)C)cc12" , reported IC50: 0.0216

Memo: "CC1(C)[C@@H]2[C@@H](C(=O)N[C@H](C=O)C[C@@H]3CCNC3=O)N(C(=O)c3cc4c(F)cc(F)cc4[nH]3)C[C@@H]21" , reported IC50: 0.0155
